// provenance: patent US20190315842A1

target: T1, Sm (sphingomyelin); test: AtheNA Multi-Lyte ANA, Ab at 6.25 ug/ml;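 also: monoclonal antibodies screened for reactivity against a panel of nuclear autoantigens, with an anti-HIV and an anti-RSV monoclonal antibody serving as controls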
T1 construct: in an ANA panel of nuclear antigens Sm is usually the Smith ribonucleoprotein antigen; Kept, but see recheck
Entries and their AtheNA signal values follow.
measured.parameter: AtheNA signal

[[record]]
binder = "Ab7961/293i (antibody, IgG1, V domains shown, Recombinant human antibody with IgG1 heavy chain backbone and kappa light chain constant; they begin at LVESGGG and MTQSP; also called mAb 7961; clone 24) VH: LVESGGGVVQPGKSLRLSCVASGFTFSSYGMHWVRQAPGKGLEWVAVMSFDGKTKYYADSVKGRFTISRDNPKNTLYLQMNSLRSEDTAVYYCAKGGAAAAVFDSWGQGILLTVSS VL: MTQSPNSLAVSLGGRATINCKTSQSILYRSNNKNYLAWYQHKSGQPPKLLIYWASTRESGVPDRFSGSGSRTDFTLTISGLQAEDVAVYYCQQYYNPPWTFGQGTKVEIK"
measured_parameter = "AtheNA signal"
numeric_readout = 4

[[record]]
binder = "Ab7962/293i (antibody, V domains shown, Recombinant human antibody with IgG1 heavy chain backbone and kappa light chain constant (IgM in the donor B cell); they begin at LVESGGG and MTQSL; also called clone 27; pH007962/pK005996) VH: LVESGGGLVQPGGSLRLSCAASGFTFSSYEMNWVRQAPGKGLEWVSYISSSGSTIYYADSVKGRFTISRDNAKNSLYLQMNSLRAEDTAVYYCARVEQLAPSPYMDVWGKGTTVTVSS VL: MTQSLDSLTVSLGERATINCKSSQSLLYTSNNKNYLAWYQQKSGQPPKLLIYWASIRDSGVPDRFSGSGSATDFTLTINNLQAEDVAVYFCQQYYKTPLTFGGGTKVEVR"
measured_parameter = "AtheNA signal"
numeric_readout = 4

[[record]]
binder = "Ab7968 (antibody, IgG1, V domains shown, Recombinant human antibody with IgG1 heavy chain backbone and kappa light chain constant; they begin at LVESGGG and MTQSP; also called mAb 7968; mAb7968) VH: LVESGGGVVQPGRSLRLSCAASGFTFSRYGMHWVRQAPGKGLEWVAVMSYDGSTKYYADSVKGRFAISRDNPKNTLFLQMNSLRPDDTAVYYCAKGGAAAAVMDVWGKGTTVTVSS VL: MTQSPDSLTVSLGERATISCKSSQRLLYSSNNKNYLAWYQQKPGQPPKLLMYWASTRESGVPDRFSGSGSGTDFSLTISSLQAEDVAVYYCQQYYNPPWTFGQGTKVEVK"
measured_parameter = "AtheNA signal"
numeric_readout = 4

[[record]]
binder = "Ab7960/293i (antibody, IgG1, V domains shown, Recombinant human antibody with IgG1 heavy chain backbone and kappa light chain constant; they begin at LVESGGG and MTQSP; also called mAb 7960; mAb7960) VH: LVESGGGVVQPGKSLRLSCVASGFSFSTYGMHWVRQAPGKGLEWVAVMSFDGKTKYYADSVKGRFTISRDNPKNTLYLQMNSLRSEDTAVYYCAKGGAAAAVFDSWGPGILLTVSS VL: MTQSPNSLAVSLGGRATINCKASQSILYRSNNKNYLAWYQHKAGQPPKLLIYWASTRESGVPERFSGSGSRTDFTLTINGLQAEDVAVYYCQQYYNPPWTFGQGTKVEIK"
measured_parameter = "AtheNA signal"
numeric_readout = 2

[[record]]
binder = "Ab7955 (antibody, V domains shown, Recombinant human antibody with IgG1 heavy chain backbone and kappa light chain constant; also called mAb 7955; clone 19) VH: LVESGGGVVRPGRSLRLSCVASGFTFNAYGMHWVRQGPGKGLEWLAVISYEGKTVYYADSVKDRFTISRDNSRNTVSLHLNNLRGEDTAVYYCAKGSASAAVLQHWGQGTLVSVTS VL: MTQSPGSLAVSLGSRATINCKSSRSLLYRSNNKNYLAWYQQKPGQSPRLLIYWASSRESGVPDRFSGGGSGTSFTLTISSLQAEDVAVYYCQQYFNPPWTFGQGTKVEIK"
measured_parameter = "AtheNA signal"
numeric_readout = 5

[[record]]
binder = "Ab7957/293i (antibody, IgG1, V domains shown, Recombinant human antibody with IgG1 heavy chain backbone and kappa light chain constant; they begin at LVESGGG and MTQSP; also called Ab7957i; mAb 7957) VH: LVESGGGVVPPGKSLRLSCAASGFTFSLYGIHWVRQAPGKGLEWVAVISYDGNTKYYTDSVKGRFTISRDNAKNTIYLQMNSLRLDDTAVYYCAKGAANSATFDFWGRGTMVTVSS VL: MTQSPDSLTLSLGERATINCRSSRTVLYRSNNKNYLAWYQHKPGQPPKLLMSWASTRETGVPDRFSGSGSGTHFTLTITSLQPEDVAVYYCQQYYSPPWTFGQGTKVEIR"
measured_parameter = "AtheNA signal"
numeric_readout = 3

